assay: Volume of distribution in Wistar rat at 2.7 mg/kg, iv; format: ADME, organism-based; parameters: dose 2.7 mg/kg, route intravenous; settings: in vivo, read-out: Vdss
measurement name: Vd (L/kg)

In [3]: df
Out[3]:
                            chemical_string  units_symbol  numeric_result
0  Cc1nc(-c2ccc(C(F)(F)F)cc2)sc1C(=O)NCc1ccc(OC(C)(C)C(=O)O)cc1          L/kg               1

###

assay: Half life in Beagle dog plasma at 2 mg/kg, iv; type: ADME, organism-based, Canis lupus familiaris; parameters: dose 2 mg/kg, route intravenous
measurement name: half-life (h)

                            chemical_string  measurement_name  units_symbol  numeric_result
0  Cc1nc(-c2ccc(C(F)(F)F)cc2)sc1C(=O)NCc1ccc(OC(C)(C)C(=O)O)cc1         half-life             h             2.6

src = ChEMBL document CHEMBL1141367
